Test system: L1210 leukemia ip in BDF1 mice, survival T/C
Experiment: NCI In Vivo Anticancer Drug Screen. Data for tumor model L1210 Leukemia (intraperitoneal) in B6D2F1 (BDF1) mice
Conditions: endpoint: mean survival time; dose: 400.0 mg/kg/injection; schedule: Q01DX009 (ip); vehicle: saline; higher = longer survival
Inconclusive results and toxic doses are left out.
READOUT_TYPE: T/C

SMILES_CODE: Cc1ccc(Cl)cc1NC(=O)c1ccccc1Cl
T/C: 100 % of control
//
SMILES_CODE: CNCCO
T/C: 97 % of control
//
SMILES_CODE: COC(=O)C(C)=C1CCCCC1
T/C: 96 % of control

Prompt: Read the entry O=C(CC(=O)Nc1ccccc1)Cc1ccccc1 and write its reported T/C.
Response: 93 % of control
